tested_target: Purified hemoglobin (Homo sapiens)
Sequence (P69905 2-142 limits assumed): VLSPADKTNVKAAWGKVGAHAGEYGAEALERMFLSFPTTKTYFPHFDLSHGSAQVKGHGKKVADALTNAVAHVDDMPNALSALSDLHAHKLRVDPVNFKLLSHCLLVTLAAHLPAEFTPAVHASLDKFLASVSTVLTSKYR
Sequence (P68871 2-147 partner limits assumed): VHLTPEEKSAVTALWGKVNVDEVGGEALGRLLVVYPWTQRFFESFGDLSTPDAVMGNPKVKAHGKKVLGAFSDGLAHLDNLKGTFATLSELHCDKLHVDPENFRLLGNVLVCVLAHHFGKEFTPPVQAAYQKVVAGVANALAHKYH
assay_remarks: Hemoglobin assay: oxygen equilibrium curves with purified hemoglobin, change in p50
Format: biochemical
measurement_conditions: purified hemoglobin 25 μM, compound 30 μM, 1 h at 37° C.
Collected Delta-p50 (%) values appear next to each entry.
Kindly report the value followed by its unit.

Look over these answered cases.
Query block: Requested read-out: Delta-p50 (%). Entry: O=Cc1cc(-c2ncccc2COc2cccc(O)c2C=O)co1 [Compound 11]
Result block: 14.12%

Query block: Requested read-out: Delta-p50 (%). Entry: O=Cc1cccc(-c2ncccc2COc2cccc(O)c2C=O)c1 [Compound 8]
Result block: 57.3%

Query block: Requested read-out: Delta-p50 (%). Entry: COc1ccc(C=O)cc1-c1ncccc1COc1cccc(O)c1C=O [Compound 6]
Result block: 60.66%

# context switch: different compound, same Delta-p50 (%)
Query block: Requested read-out: Delta-p50 (%). Entry: COc1ncc(C=O)cc1-c1ncccc1COc1cccc(O)c1C=O [Compound 7]
Result block: 58.29%

All values here come from patent US11014884B2.
